- assay-setup: in isobutanol, 293.15 K
attribute-measured: solubility (mole fraction)

- smiles: "NC(N)=NC(N)=NCCc1ccccc1"
  reading: 0.00095

* * *

- assay-setup: in NMP, 318.15 K

- smiles: "NC(N)=NC(N)=NCCc1ccccc1"
  solubility (mole fraction): 0.0486

* * *

- assay-setup: in n-butanol, 288.15 K

- smiles: "NC(N)=NC(N)=NCCc1ccccc1"
  solubility (mole fraction): 0.000923

* * *

- assay-setup: in ethanol, 293.15 K
attribute-measured: solubility (mole fraction)

- smiles: "NC(N)=NC(N)=NCCc1ccccc1"
  reading: 0.00322

* * *

- assay-setup: in acetonitrile, 283.15 K
attribute-measured: solubility (mole fraction)

- smiles: "NC(N)=NC(N)=NCCc1ccccc1"
  attribute-measured: "solubility (mole fraction)"
  reading: 0.00026

* * *

- assay-setup: in ethanol, 278.15 K
attribute-measured: solubility (mole fraction)

- smiles: "NC(N)=NC(N)=NCCc1ccccc1"
  reading: 0.00183

* * *

- assay-setup: in acetonitrile, 318.15 K
attribute-measured: solubility (mole fraction)

- smiles: "NC(N)=NC(N)=NCCc1ccccc1"
  reading: 0.00101

* * *

- assay-setup: in ethylene glycol, 283.15 K
attribute-measured: solubility (mole fraction)

- smiles: "NC(N)=NC(N)=NCCc1ccccc1"
  reading: 0.00366

* * *

- assay-setup: in isopropanol, 293.15 K

- smiles: "NC(N)=NC(N)=NCCc1ccccc1"
  solubility (mole fraction): 0.00142

* * *

- assay-setup: in n-propanol, 308.15 K
attribute-measured: solubility (mole fraction)

- smiles: "NC(N)=NC(N)=NCCc1ccccc1"
  attribute-measured: "solubility (mole fraction)"
  reading: 0.0029

* * *

- assay-setup: in 1,4-dioxane, 308.15 K

- smiles: "NC(N)=NC(N)=NCCc1ccccc1"
  solubility (mole fraction): 0.000379
